assay.summary: Color rendering property (hue change under tungsten light versus standard light source, visual)
Assay type: physicochemical
Set-up: key: ∘: Change in hue was small.; Δ: Change in hue was somewhat large.; X: Change in hue was large
stated.conditions: hue change under tungsten light compared with standard light source
measured.property: color rendering property

{"molecule": "Nc1cc2c(O)c(N=Nc3ccc(N=Nc4ccc(S(=O)(=O)[O-])cc4)c4ccc(S(=O)(=O)[O-])cc34)c(S(=O)(=O)[O-])cc2cc1S(=O)(=O)[O-].[Na+].[Na+].[Na+].[Na+] [compound 1, C.I. Food Black 2, reference compound]", "result": "Δ"}
{"molecule": "COc1cc(N=Nc2cc(S(=O)(=O)O)cc3cc(S(=O)(=O)O)cc(O)c23)c(C)cc1N=Nc1c(S(=O)(=O)O)cc2ccc(N=Nc3ccc(N)cc3O)cc2c1O", "result": "◯"}
{"molecule": "COCCOc1cc(N=Nc2cc(S(=O)(=O)O)cc3cc(S(=O)(=O)O)cc(O)c23)c(NC(C)=O)cc1N=Nc1c(S(=O)(=O)O)cc2ccc(N=Nc3ccc(N)cc3N)cc2c1O", "result": "◯"}
{"molecule": "COc1cc(N=Nc2cc(S(=O)(=O)O)cc3cc(S(=O)(=O)O)cc(O)c23)c(C)cc1N=Nc1c(S(=O)(=O)O)cc2ccc(N=Nc3ccc(O)cc3O)cc2c1O", "result": "◯"}
{"molecule": "Nc1cc(N)c(S(=O)(=O)O)cc1N=Nc1ccc2cc(S(=O)(=O)O)c(N=Nc3ccc(N=Nc4cc(S(=O)(=O)O)cc5cc(S(=O)(=O)O)cc(O)c45)c4ccc(S(=O)(=O)O)cc34)c(O)c2c1", "result": "◯"}
{"molecule": "COCCOc1cc(N=Nc2cc(S(=O)(=O)O)cc3cc(S(=O)(=O)O)cc(O)c23)c(N)cc1N=Nc1c(S(=O)(=O)O)cc2ccc(N=Nc3cc(S(=O)(=O)O)c(N)cc3N)cc2c1O", "result": "◯"}
{"molecule": "COc1cc(N=Nc2cc(S(=O)(=O)O)cc3cc(S(=O)(=O)O)cc(O)c23)c(C)cc1N=Nc1c(S(=O)(=O)O)cc2ccc(N=Nc3ccc(N)cc3N)cc2c1O", "result": "◯"}
{"molecule": "COCCOc1cc(N=Nc2cc(S(=O)(=O)O)cc3cc(S(=O)(=O)O)cc(O)c23)c(NC(C)=O)cc1N=Nc1c(S(=O)(=O)O)cc2ccc(N=Nc3cc(S(=O)(=O)O)c(N)cc3N)cc2c1O", "result": "◯"}
{"molecule": "COCCOc1cc(N=Nc2cc(S(=O)(=O)O)cc3cc(S(=O)(=O)O)cc(O)c23)c(NC(C)=O)cc1N=Nc1c(S(=O)(=O)O)cc2ccc(N=Nc3ccc(N)cc3O)cc2c1O", "result": "◯"}
{"molecule": "COc1cc(N=Nc2cc(S(=O)(=O)O)cc3cc(S(=O)(=O)O)cc(O)c23)c(NC(C)=O)cc1N=Nc1c(S(=O)(=O)O)cc2cc(S(=O)(=O)O)c(N=Nc3cc(S(=O)(=O)O)c(N)cc3N)cc2c1O", "result": "◯"}
